The measured values listed here are drawn from patent US20260008787A1.

molecular target: KRAS G12V (Homo sapiens, UniProt P01116, G12V); test: biochemical
Sequence (P01116 1-188 isoform P01116-2 G12V): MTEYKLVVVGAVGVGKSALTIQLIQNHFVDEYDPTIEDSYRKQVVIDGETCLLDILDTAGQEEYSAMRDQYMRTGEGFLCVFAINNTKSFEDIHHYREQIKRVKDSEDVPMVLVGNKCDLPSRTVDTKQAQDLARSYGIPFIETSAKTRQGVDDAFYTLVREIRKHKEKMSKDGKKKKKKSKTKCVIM
# YES = IC50 below 30 nM (exclusive); NO = IC50 at/above 30 nM

Enquiry: # strict comparison: is reported IC50 < 30 nM? input = C#Cc1c(F)ccc2cc(O)cc(-c3nc4c5c(nc(OC[C@@]67CCCN6C[C@H](F)C7)nc5c3F)N(Cc3ccccc3)CCC4)c12
Return: NO

----------
molecular target: KRAS G12V (Homo sapiens, UniProt P01116, G12V); test: biochemical
# criterion met = IC50 below 2 nM (exclusive); criterion not met = IC50 at/above 2 nM

Recorded results for 5 molecules are shown here.
MOLECULE	ASSIGNED_CATEGORY
CCc1c(F)ccc2cc(O)cc(-c3nc4c5c(nc(OC[C@@]67CCCN6C[C@H](F)C7)nc5c3F)N3CCC[C@](C)(O)[C@@H]3CO4)c12	criterion not met
C#Cc1c(F)ccc2cc(O)cc(-c3nc4c5c(nc(OC[C@@]67CCCN6C[C@H](F)C7)nc5c3F)N(CC)[C@@H](C)CO4)c12	criterion not met
C#Cc1c(F)ccc2cc(O)cc(-c3nc4c5c(nc(OC[C@@]67CCCN6C[C@H](F)C7)nc5c3F)N[C@@H](C)CO4)c12	criterion met
CC[C@H]1COc2nc(-c3cc(O)cc4ccc(F)c(Cl)c34)c(F)c3nc(OC[C@@]45CCCN4C[C@H](F)C5)nc(c23)N1C	criterion met
CCc1c(F)ccc2cc(O)cc(-c3nc4c5c(nc(OC[C@@]67CCCN6C[C@H](F)C7)nc5c3F)N3CCC[C@@](C)(O)[C@H]3CO4)c12	criterion met

Enquiry: # strict comparison: is reported IC50 < 2 nM? input = C#Cc1c(F)ccc2cc(O)cc(-c3nc4c5c(nc(OC[C@@]67CCCN6C[C@H](F)C7)nc5c3F)N3CC=CC[C@H]3CO4)c12
Return: criterion not met
